Test: Cytotoxicity against HEK293 cells assessed as cell viability at 10 to 50 uM measured after 24 hrs by alamar blue assay relative to control
Format: toxicity, cell-based
Settings: human, dose 10-50 µM, read-out: Activity
ATTRIBUTE MEASURED: viability at 24 h, up to 50 µM (%)
Give bare numbers, in %.

Record CC(C)(C)Nc1c(-c2ccc(-c3ccccc3)cc2)nc2sccn12 , field viability at 24 h, up to 50 µM: 100
